Recorded NanoBRET Fold Response values for a group of compounds are listed next.
- Target desc: LTB4R2 (Homo sapiens)
- Construct: purchased Promega (in-house HiBiT-GPCR construct library, NanoBRET)
- Sequence (Q9NPC1 whole entry): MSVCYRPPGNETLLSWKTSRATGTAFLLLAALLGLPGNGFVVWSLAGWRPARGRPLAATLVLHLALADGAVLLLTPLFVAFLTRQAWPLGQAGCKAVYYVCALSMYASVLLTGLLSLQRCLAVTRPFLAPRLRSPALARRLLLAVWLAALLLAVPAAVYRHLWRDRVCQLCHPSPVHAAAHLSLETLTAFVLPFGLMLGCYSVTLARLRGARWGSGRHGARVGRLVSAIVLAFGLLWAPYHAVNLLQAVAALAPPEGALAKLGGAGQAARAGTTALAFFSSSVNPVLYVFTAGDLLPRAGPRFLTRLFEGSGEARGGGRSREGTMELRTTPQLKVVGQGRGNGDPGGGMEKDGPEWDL
- Protocol: NanoBRET screen HiBiT-LTB4R2 in HEK293
- Assay type: binding
- Settings: LTB4R2; tracer 1μM
Quantity name: NanoBRET Fold Response

1) CC(C)N(CC[C@H](c1ccccc1)c1cc(CCNC(=O)CCOCCOCCOCCOCCNC(=O)CCc2ccc3n2[B-](F)(F)[N+]2=C(c4ccc[nH]4)C=CC2=C3)ccc1O)C(C)C | 1.22
2) CCCn1c(=O)c2[nH]c(-c3ccc(OCC(=O)NCCNC(=O)CCOCCNC(=O)c4ccc(CNC(=O)CCc5ccc6n5[B-](F)(F)[N+]5=C(c7ccc[nH]7)C=CC5=C6)cc4)cc3)nc2n(CCC)c1=O | 0.98
3) N#CN=C(NCCCOc1cccc(CN2CCCCC2)c1)NCCNC(=O)CCOCCOCCOCCOCCNC(=O)CCc1ccc2n1[B-](F)(F)[N+]1=C(c3ccc[nH]3)C=CC1=C2 | 1.04

----------
- Target desc: EDNRA (Homo sapiens)
- Construct: purchased Promega (in-house HiBiT-GPCR construct library, NanoBRET)
- Sequence (P25101 21-427): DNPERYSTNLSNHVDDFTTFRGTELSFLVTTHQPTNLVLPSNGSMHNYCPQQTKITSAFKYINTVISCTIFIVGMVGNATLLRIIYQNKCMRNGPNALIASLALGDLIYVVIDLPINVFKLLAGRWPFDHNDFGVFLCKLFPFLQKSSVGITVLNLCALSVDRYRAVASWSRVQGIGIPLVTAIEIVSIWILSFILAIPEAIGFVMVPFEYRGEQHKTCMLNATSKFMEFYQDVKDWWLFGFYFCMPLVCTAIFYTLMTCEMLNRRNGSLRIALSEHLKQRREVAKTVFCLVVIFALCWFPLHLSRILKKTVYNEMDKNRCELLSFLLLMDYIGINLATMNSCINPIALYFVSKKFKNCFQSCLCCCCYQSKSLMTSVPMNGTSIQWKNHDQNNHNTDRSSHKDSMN
- Protocol: NanoBRET screen HiBiT-EDNRA in HEK293
- Format: binding
- Settings: EDNRA; tracer 1μM
Quantity name: NanoBRET Fold Response

1. O=C(CCc1ccc2n1[B-](F)(F)[N+]1=C(c3ccc[nH]3)C=CC1=C2)NCCOCCOCCNC(=O)OCCOCCN1CCN(C2=Nc3ccccc3Sc3ccccc32)CC1 | 1.04
2. O=C(CCOCCOCCOCCOCCNC(=O)CCc1ccc2n1[B-](F)(F)[N+]1=C(c3ccc[nH]3)C=CC1=C2)NCCCN1CCN(C2=Nc3ccccc3Oc3ccc(Cl)cc32)CC1 | 0.85
3. COc1ccccc1N1CCN(CCCCN2C(=O)c3ccc(CNC(=O)CCOCCNC(=O)c4ccc(CNC(=O)CCc5ccc6n5[B-](F)(F)[N+]5=C(c7ccc[nH]7)C=CC5=C6)cc4)cc3C2=O)CC1 | 1.21

----------
- Target desc: C5AR2 (Homo sapiens)
- Construct: purchased Promega (in-house HiBiT-GPCR construct library, NanoBRET)
- Sequence (Q9P296 whole entry): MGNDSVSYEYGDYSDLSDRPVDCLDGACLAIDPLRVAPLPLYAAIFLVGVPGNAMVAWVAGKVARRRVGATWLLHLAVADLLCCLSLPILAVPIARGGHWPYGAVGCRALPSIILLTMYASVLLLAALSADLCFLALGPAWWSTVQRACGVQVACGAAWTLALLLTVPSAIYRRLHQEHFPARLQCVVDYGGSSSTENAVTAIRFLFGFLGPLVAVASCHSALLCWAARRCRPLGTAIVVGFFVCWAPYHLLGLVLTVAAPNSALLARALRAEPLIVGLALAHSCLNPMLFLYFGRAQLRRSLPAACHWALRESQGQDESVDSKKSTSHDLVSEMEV
- Protocol: NanoBRET screen HiBiT-C5AR2 in HEK293
- Assay type: binding
- Settings: C5AR2; tracer 1μM
Quantity name: NanoBRET Fold Response

1. O=C(CCc1ccc2n1[B-](F)(F)[N+]1=C(c3ccc[nH]3)C=CC1=C2)NCCOCCOCCNC(=O)OCCOCCN1CCN(C2=Nc3ccccc3Sc3ccccc32)CC1 | 0.77
2. O=C(CCOCCOCCOCCOCCNC(=O)CCc1ccc2n1[B-](F)(F)[N+]1=C(c3ccc[nH]3)C=CC1=C2)NCCCN1CCN(C2=Nc3ccccc3Oc3ccc(Cl)cc32)CC1 | 1.07
3. N#CN=C(NCCCOc1cccc(CN2CCCCC2)c1)NCCNC(=O)CCOCCOCCOCCOCCNC(=O)CCc1ccc2n1[B-](F)(F)[N+]1=C(c3ccc[nH]3)C=CC1=C2 | 1.03
4. COc1ccccc1N1CCN(CCCCN2C(=O)c3ccc(CNC(=O)CCOCCNC(=O)c4ccc(CNC(=O)CCc5ccc6n5[B-](F)(F)[N+]5=C(c7ccc[nH]7)C=CC5=C6)cc4)cc3C2=O)CC1 | 1.07
5. Cc1nc2n(c(=O)c1CCN1CCC(c3noc4cc(F)ccc34)CC1)CCCC2OC(=O)NCCOCCOCCOCCOCCNC(=O)CCc1ccc2n1[B-](F)(F)[N+]1=C(c3ccc[nH]3)C=CC1=C2 (centres unmarked) | 1.07

----------
- Target desc: NPY5R (Homo sapiens)
- Construct: purchased Promega (in-house HiBiT-GPCR construct library, NanoBRET)
- Sequence (Q15761 1-445): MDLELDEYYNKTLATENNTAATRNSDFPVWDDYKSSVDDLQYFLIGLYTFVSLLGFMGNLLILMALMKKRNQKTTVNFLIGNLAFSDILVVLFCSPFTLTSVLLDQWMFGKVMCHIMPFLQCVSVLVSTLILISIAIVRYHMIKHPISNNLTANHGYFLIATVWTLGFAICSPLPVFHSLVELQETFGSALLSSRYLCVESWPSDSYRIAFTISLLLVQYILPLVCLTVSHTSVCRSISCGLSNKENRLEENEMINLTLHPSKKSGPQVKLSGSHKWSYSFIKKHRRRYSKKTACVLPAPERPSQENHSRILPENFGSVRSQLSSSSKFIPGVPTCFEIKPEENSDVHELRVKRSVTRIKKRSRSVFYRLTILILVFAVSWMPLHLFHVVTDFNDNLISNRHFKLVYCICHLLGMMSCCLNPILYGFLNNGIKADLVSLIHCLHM
- Protocol: NanoBRET screen HiBiT-NPY5R in HEK293
- Type: binding
- Settings: NPY5R; tracer 0.1μM
Quantity name: NanoBRET Fold Response

1. CC(C)N(CC[C@H](c1ccccc1)c1cc(CCNC(=O)CCOCCOCCOCCOCCNC(=O)CCc2ccc3n2[B-](F)(F)[N+]2=C(c4ccc[nH]4)C=CC2=C3)ccc1O)C(C)C [Tolterodine-2-NB590] | 0.95
2. Cc1nc2n(c(=O)c1CCN1CCC(c3noc4cc(F)ccc34)CC1)CCCC2OC(=O)NCCOCCOCCOCCOCCNC(=O)CCc1ccc2n1[B-](F)(F)[N+]1=C(c3ccc[nH]3)C=CC1=C2 (centres unmarked) [Risperidone-2-NB590] | 0.97
3. CCCn1c(=O)c2[nH]c(-c3ccc(OCC(=O)NCCNC(=O)CCOCCNC(=O)c4ccc(CNC(=O)CCc5ccc6n5[B-](F)(F)[N+]5=C(c7ccc[nH]7)C=CC5=C6)cc4)cc3)nc2n(CCC)c1=O [XAC-3-NB590] | 1.02
4. COc1ccccc1N1CCN(CCCCN2C(=O)c3ccc(CNC(=O)CCOCCNC(=O)c4ccc(CNC(=O)CCc5ccc6n5[B-](F)(F)[N+]5=C(c7ccc[nH]7)C=CC5=C6)cc4)cc3C2=O)CC1 [NAN-190-3-NB590] | 1.01
5. O=C(CCc1ccc2n1[B-](F)(F)[N+]1=C(c3ccc[nH]3)C=CC1=C2)NCCOCCOCCNC(=O)OCCOCCN1CCN(C2=Nc3ccccc3Sc3ccccc32)CC1 [Quetiapine-a-2-NB590] | 0.98

----------
- Target desc: PTGER4 (Homo sapiens)
- Construct: purchased Promega (in-house HiBiT-GPCR construct library, NanoBRET)
- Sequence (P35408 whole entry): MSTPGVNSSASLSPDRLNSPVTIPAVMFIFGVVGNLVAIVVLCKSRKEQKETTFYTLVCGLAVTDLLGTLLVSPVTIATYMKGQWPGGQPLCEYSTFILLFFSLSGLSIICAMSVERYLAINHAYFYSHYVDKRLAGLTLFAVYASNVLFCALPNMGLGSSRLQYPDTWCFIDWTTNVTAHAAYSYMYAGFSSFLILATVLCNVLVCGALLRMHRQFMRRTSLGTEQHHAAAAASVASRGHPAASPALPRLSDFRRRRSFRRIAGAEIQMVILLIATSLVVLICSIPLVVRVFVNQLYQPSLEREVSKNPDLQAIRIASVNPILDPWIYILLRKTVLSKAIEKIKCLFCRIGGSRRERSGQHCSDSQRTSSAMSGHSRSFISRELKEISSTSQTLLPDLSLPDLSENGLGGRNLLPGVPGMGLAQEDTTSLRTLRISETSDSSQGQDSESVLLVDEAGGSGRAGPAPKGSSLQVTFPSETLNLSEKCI
- Protocol: NanoBRET screen HiBiT-PTGER4 in HEK293
- Type: binding
- Settings: PTGER4; tracer 0.1μM
Recorded NanoBRET Fold Response values for a group of molecules are listed next.
Quantity name: NanoBRET Fold Response

1. COc1ccccc1N1CCN(CCCCN2C(=O)c3ccc(CNC(=O)CCOCCOCCOCCOCCNC(=O)CCc4ccc5n4[B-](F)(F)[N+]4=C(c6ccc[nH]6)C=CC4=C5)cc3C2=O)CC1 | 1.02
2. Cc1nc2n(c(=O)c1CCN1CCC(c3noc4cc(F)ccc34)CC1)CCCC2OC(=O)NCCOCCOCCOCCOCCNC(=O)CCc1ccc2n1[B-](F)(F)[N+]1=C(c3ccc[nH]3)C=CC1=C2 (stereo not drawn) | 1.00
3. COc1ccccc1N1CCN(CCCCN2C(=O)c3ccc(CNC(=O)CCOCCNC(=O)c4ccc(CNC(=O)CCc5ccc6n5[B-](F)(F)[N+]5=C(c7ccc[nH]7)C=CC5=C6)cc4)cc3C2=O)CC1 | 1.00

----------
- Target desc: NPSR1 (Homo sapiens, UniProt Q6W5P4)
- Construct: purchased Promega (in-house HiBiT-GPCR construct library, NanoBRET)
- Sequence (Q6W5P4 1-371): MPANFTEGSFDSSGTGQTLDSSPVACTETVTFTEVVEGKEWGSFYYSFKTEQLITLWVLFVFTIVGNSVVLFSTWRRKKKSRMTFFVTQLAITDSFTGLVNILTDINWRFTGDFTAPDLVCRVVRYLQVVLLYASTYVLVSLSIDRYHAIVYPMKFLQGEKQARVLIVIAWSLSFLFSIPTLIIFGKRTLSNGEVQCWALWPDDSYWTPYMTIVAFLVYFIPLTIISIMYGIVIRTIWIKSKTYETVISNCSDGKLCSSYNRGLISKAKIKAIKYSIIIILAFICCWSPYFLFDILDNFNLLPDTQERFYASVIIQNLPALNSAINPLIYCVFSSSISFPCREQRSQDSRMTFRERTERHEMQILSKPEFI
- Protocol: NanoBRET screen HiBiT-NPSR1 in HEK293
- Format: binding
- Settings: NPSR1; tracer 1μM
Quantity name: NanoBRET Fold Response

1. O=C(CCOCCOCCOCCOCCNC(=O)CCc1ccc2n1[B-](F)(F)[N+]1=C(c3ccc[nH]3)C=CC1=C2)NCCCN1CCN(C2=Nc3ccccc3Oc3ccc(Cl)cc32)CC1 | 1.04
2. N#CN=C(NCCCOc1cccc(CN2CCCCC2)c1)NCCNC(=O)CCOCCOCCOCCOCCNC(=O)CCc1ccc2n1[B-](F)(F)[N+]1=C(c3ccc[nH]3)C=CC1=C2 | 1.01
3. CCCn1c(=O)c2[nH]c(-c3ccc(OCC(=O)NCCNC(=O)CCOCCNC(=O)c4ccc(CNC(=O)CCc5ccc6n5[B-](F)(F)[N+]5=C(c7ccc[nH]7)C=CC5=C6)cc4)cc3)nc2n(CCC)c1=O | 0.92

Data provenance is paper PMC8151276.
